Biological target: c-Fos (Homo sapiens, UniProt P01100)
Sequence (P01100 whole entry): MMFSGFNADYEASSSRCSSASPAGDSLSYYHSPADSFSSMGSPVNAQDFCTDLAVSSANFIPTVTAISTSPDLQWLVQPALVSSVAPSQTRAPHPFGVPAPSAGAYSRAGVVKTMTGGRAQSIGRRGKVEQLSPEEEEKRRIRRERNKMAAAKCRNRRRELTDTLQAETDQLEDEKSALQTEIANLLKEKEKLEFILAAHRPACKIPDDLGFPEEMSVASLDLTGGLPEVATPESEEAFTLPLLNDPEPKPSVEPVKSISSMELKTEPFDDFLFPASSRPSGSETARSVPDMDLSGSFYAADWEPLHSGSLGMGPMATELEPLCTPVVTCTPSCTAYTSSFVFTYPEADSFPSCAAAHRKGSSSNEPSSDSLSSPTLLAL
Assay: MITOMI-type chip (QPID); rabbit reticulocyte lysate, 1 h; wash 50 mM HEPES; temperature not stated; DNA spotted at 0.0156-2 uM
Details: tags: N-cMyc, C-His6 (kept); label: Cy5 on the primer strand
MEASUREMENT TYPE: Kd

BINDER	Kd
oligo 7 (Mutant) (dsDNA) DNA 1: GGCCACTACCGCTTCCTCCACAAATAAAATTGGTTTTCTCCACCAAGGAAGT DNA 2: ACTTCCTTGGTGGAGAAAACCAATTTTATTTGTGGAGGAAGCGGTAGTGGCC	> 2000 nM

Need Kd for each of these binders.
1. oligo 3 (AP-1) (dsDNA) DNA 1: GGCCACTACCGCTTCCTCCACATGAGTCATGGTTTTCTCCACCAAGGAAGT DNA 2: ACTTCCTTGGTGGAGAAAACCATGACTCATGTGGAGGAAGCGGTAGTGGCC
2. oligo 1 (CRE) (dsDNA) DNA 1: GGCCACTACCGCTTCCTCCACATGACGTCATGGTTTTCTCCACCAAGGAAGT DNA 2: ACTTCCTTGGTGGAGAAAACCATGACGTCATGTGGAGGAAGCGGTAGTGGCC
3. oligo 6 (HS) (dsDNA) DNA 1: TTATCCACTTGCGCTCGCCGAGTGGCGTCACCAGCGGTACTGTAATGACGAT DNA 2: ATCGTCATTACAGTACCGCTGGTGACGCCACTCGGCGAGCGCAAGTGGATAA
4. oligo 2 (CRE) (dsDNA) DNA 1: TTATGACCTGGGAGTGACGTCATGGAATCCACAGA DNA 2: TCTGTGGATTCCATGACGTCACTCCCAGGTCATAA

["> 2000 nM", "> 2000 nM", "> 2000 nM", "> 2000 nM"]

Need Kd for each of these binders.
1. oligo 4 (AP-1) (dsDNA) DNA 1: TTATGACCTGGGAGTGAGTCAATGGAATCCACAGA DNA 2: TCTGTGGATTCCATTGACTCACTCCCAGGTCATAA
2. oligo 5 (HS) (dsDNA) DNA 1: GGCCACTACCGCTTCCTCCACATGGCGTCATGGTTTTCTCCACCAAGGAAGT DNA 2: ACTTCCTTGGTGGAGAAAACCATGACGCCATGTGGAGGAAGCGGTAGTGGCC

1. > 2000 nM
2. > 2000 nM

Values were extracted from paper PMC4824076.
